Where do the numbers come from? From PubChem BioAssay AID2669.

- Assay Text: qHTS Assay Multiplex Screening to Identify Dual Action Probes in a Cell Model of Huntington: Cytoprotection (Protease relase)
- Condition Notes: PC12 HttQ103 cells, Cytotox-Glo protease release, 40 h; series mostly up to 46.1 µM
Results filed as inconclusive are left out. Active and inactive are the calls of the source. Calls follow the shape of the dose curve; as a rule, active = well fitted inhibition curve with a large enough effect; inconclusive = small, poorly fitted or top-dose-only effect, or effect the other way; inactive = flat fitted curve, though single readings scatter.
Could you please pick one outcome from this set? yes (1) (active), no (0) (inactive)

Check out these entries, answers already filled in.
[
  {
    "Molecule": "Cn1nnnc1Sc1ncnc2scc(-c3cnc(N)nc3)c12",
    "Discrete Label": "yes (1)"
  },
  {
    "Molecule": "O=C(O)CCN1C(=O)/C(=C\\c2ccc(-c3nc4ccccc4s3)o2)SC1=S",
    "Discrete Label": "yes (1)"
  },
  {
    "Molecule": "N#Cc1c(C(F)(F)F)cc(-c2cccc(Cl)c2)[nH]c1=O",
    "Discrete Label": "yes (1)"
  },
  {
    "Molecule": "COc1ccccc1-n1nnnc1S(=O)(=O)Cc1ccc(Cl)cc1",
    "Discrete Label": "yes (1)"
  },
  {
    "Molecule": "Cn1nnnc1Sc1ncnc2scc(-c3cc4ccccc4o3)c12",
    "Discrete Label": "yes (1)"
  },
  {
    "Molecule": "Fc1cccc(Cl)c1Cn1nnc2c(-n3ccnc3)ncnc21",
    "Discrete Label": "no (0)"
  }
]

Q: Call for entry CN1C(=O)NC(NC(=O)c2cccs2)(C(F)(F)F)C1=O (configuration not stated) :
Result: no (0)

Q: Status in this test for `O=C(O)c1cccc(COc2ccc(CO)cc2Cl)c1` ?
Result: yes (1)

Q: Called result for `O=C(CNc1ccc(Oc2ccccc2)cc1)N1CCOCC1`
Result: yes (1)

Q: Recorded call for `COc1ccc(-c2[nH]ncc2-c2ccc3c(c2)OCCO3)c(O)c1` ?
Result: yes (1)

Q: Could you kindly confirm the outcome this assay logged for `COc1ccc2cc3cc(C(=O)NCc4ccco4)oc3nc2c1` ?
Result: yes (1)

Q: Could you kindly confirm the outcome this assay logged for `c1csc(-c2cn3c(n2)SCC3)c1` ?
Result: no (0)
